Tested on: L1210 leukemia ip in BDF1 mice, survival T/C
test-protocol: NCI In Vivo Anticancer Drug Screen. Data for tumor model L1210 Leukemia (intraperitoneal) in B6D2F1 (BDF1) mice
condition: endpoint: mean survival time; dose: 100.0 mg/kg/injection; schedule: Q01DX009 (ip); vehicle: Klucel (hydroxypropylcellulose) (HPC); higher = longer survival
Toxic doses and inconclusive results are not listed.
In this section, each of the molecules is paired with its reported T/C.
quantity: T/C

1) CN(C)c1ccccc1C(=O)N/N=C/c1ccc(F)cc1    95 % of control
2) CC(C)=NNC(=O)C1CC=CC1C(Cl)Cl (centres undefined)    96 % of control
3) Cc1ccc(NC(=O)OC(C)C)c(C)c1    100 % of control
4) COc1ccc(C2CCc3cc4c(cc3/C2=N/OC(C)=O)OCO4)cc1OC (centres undefined)    105 % of control

Origin of values: PubChem BioAssay AID248
